# System: CAL-12T
# TEST_METHOD_NOTES: relative viability (nuclei count vs DMSO), 5 days (fraction); higher = more cells survive
# EXPERIMENTAL_PARAMETERS: first compound 0.000632 µM
ENDPOINT_LABEL: relative viability
Number only, no unit.

>>> recorded_result("CC(=O)O[C@@]12CO[C@@H]1C[C@H](O)[C@@]1(C)C(=O)[C@H](O)C3=C(C)[C@@H](OC(=O)[C@H](O)[C@@H](NC(=O)OC(C)(C)C)c4ccccc4)C[C@@](O)([C@@H](OC(=O)c4ccccc4)[C@H]21)C3(C)C [Docetaxel] + CS(=O)(=O)CCNCc1ccc(-c2ccc3ncnc(Nc4ccc(OCc5cccc(F)c5)c(Cl)c4)c3c2)o1 [Lapatinib] (partner 2 µM)")
0.496
>>> recorded_result("CC(=O)O[C@@]12CO[C@@H]1C[C@H](O)[C@@]1(C)C(=O)[C@H](O)C3=C(C)[C@@H](OC(=O)[C@H](O)[C@@H](NC(=O)OC(C)(C)C)c4ccccc4)C[C@@](O)([C@@H](OC(=O)c4ccccc4)[C@H]21)C3(C)C [Docetaxel] + CC1(C)CCC(c2ccc(Cl)cc2)=C(CN2CCN(c3ccc(C(=O)NS(=O)(=O)c4ccc(N[C@H](CCN5CCOCC5)CSc5ccccc5)c(S(=O)(=O)C(F)(F)F)c4)cc3)CC2)C1 [Navitoclax] (partner 0.5 µM)")
0.694

Now examine the next entry.
Please report relative viability for the following compound: CC(=O)O[C@@]12CO[C@@H]1C[C@H](O)[C@@]1(C)C(=O)[C@H](O)C3=C(C)[C@@H](OC(=O)[C@H](O)[C@@H](NC(=O)OC(C)(C)C)c4ccccc4)C[C@@](O)([C@@H](OC(=O)c4ccccc4)[C@H]21)C3(C)C [Docetaxel] + O=C(CCCCCCC(=O)Nc1ccccc1)NO [Vorinostat] (partner 1 µM) 0.35
